# TEST NAME: Cytotoxicity by microscopic inspection, Vero cells
# Format: cell-based
# MEASUREMENT PARAMETERS: monkey; Vero cells, 24 h; read-out: MTD (maximum tolerated dose)
ATTRIBUTE MEASURED: MNTC at 24 h

INSERT INTO assay_data (compound, result) VALUES
  ('CC(=O)Nc1ncc2c(nnn2COC(CO)CO)n1 [Example 8]', '≥ 333 µg/mL'),
  ('Nc1ncc2c(nnn2COC(CO)CO)n1 [Example 9]', '≥ 333 µg/mL'),
  ('CC(=O)OCC(COC(C)=O)OCn1nnc2nc(N)ncc21 [Example 10]', '≥ 311 µg/mL'),
  ('Nc1nc(O)c2ncn(COC(CO)CO)c2n1 [Ganciclovir, reference compound]', '≥ 400 µg/mL');

---

# System: HSV-1 corneae
# TEST NAME: CPE inhibition, HSV-1 corneae in Vero cells
# Format: cell-based, type 1 herpes simplex virus
# MEASUREMENT PARAMETERS: Human alphaherpesvirus 1, MIC = concentration protecting 50% of cells from CPE
Reported EC50 by item:
ATTRIBUTE MEASURED: EC50 (µg/mL)

INSERT INTO results (compound, limit_sign, recorded_number) VALUES
  ('CC(=O)Nc1ncc2c(nnn2COC(CO)CO)n1 [Example 8]', '=', 11.5),
  ('Nc1ncc2c(nnn2COC(CO)CO)n1 [Example 9]', '=', 1.65),
  ('CC(=O)OCC(COC(C)=O)OCn1nnc2nc(N)ncc21 [Example 10]', '=', 14.8),
  ('Nc1nc2c(ncn2COCCO)c(=O)[nH]1 [Aciclovir, reference compound]', '≤', 0.98),
  ('Nc1nc(O)c2ncn(COC(CO)CO)c2n1 [Ganciclovir, reference compound]', '=', 0.85);

---

# TEST NAME: Cytotoxicity by microscopic inspection, Vero cells
# Format: cell-based
# MEASUREMENT PARAMETERS: monkey, vero cells
ATTRIBUTE MEASURED: MNTC at 24 h

INSERT INTO assay_data (compound, result) VALUES
  ('Nc1nc2c(ncn2COCCO)c(=O)[nH]1 [Aciclovir, reference compound]', '≥ 400 µg/mL');
